Molecular target: T1, recombinant biotinylated PD-L1 (rhPD-L1/Fc Chimera, R&D Systems 156-B7) (human, UniProt Q9NZQ7 19-238, biotinylated (sites not given))
T1 construct: Bought Fc chimera; also called human PD-L1
T1 sequence (Q9NZQ7 19-238, change not shown): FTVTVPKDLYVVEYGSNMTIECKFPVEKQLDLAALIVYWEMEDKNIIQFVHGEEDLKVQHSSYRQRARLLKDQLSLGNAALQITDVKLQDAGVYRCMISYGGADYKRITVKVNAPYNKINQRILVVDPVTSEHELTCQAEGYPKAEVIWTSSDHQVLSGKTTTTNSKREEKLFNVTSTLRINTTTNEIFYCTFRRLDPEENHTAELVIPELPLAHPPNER
Assay: ELISA, lysate on plate-bound antigen
Protocol: Streptavidin-coated Maxisorp plates (Nunc catalog 436110) were blocked for 1 h in Starting Block T20 (Pierce) and then coated with biotinylated PD-L1 (using same antigen as in panning) or negative controls (an unrelated Fc-fused recombinant protein and human serum albumin) for 1 h. Plates were rinsed with TBST and diluted lysate was applied to plates for 1 h. […]
measured metric: ELISA PD-L1 Fc (RSU)
Lab note: write values as number then unit, every time.

Data point: ISOP121AR5P1A10 (designed binder, not shown: small tags and cut ends, FN3 domain; E. coli lysate in the ELISA) LPAPKNLVVSRVTEDSARLSWPDWSNSEYFDSFLIQYQESEKVGEAIVLTVPGSERSYDLTGLKPGTEYTVSIYGVYARHRLFVSNPLSAIFTT ; ELISA PD-L1 Fc (RSU) = 789000 RSU

Data point: ISOP194AR9P1H1 (designed binder, not shown: small tags and cut ends, FN3 domain; E. coli lysate in the ELISA) LPAPKNLVVSRVTEDSARLSWWRVLGHSHFFDSFLIQYQESEKVGEAIVLTVPGSERSYDLTGLKPGTEYTVSIYGVYNRKVNFYSNPLSAIFTT ; ELISA PD-L1 Fc (RSU) = 2.14e+07 RSU
